meta.source: paper PMC9250534

System: MDM2 (Homo sapiens)
Sequence (Q00987 whole entry): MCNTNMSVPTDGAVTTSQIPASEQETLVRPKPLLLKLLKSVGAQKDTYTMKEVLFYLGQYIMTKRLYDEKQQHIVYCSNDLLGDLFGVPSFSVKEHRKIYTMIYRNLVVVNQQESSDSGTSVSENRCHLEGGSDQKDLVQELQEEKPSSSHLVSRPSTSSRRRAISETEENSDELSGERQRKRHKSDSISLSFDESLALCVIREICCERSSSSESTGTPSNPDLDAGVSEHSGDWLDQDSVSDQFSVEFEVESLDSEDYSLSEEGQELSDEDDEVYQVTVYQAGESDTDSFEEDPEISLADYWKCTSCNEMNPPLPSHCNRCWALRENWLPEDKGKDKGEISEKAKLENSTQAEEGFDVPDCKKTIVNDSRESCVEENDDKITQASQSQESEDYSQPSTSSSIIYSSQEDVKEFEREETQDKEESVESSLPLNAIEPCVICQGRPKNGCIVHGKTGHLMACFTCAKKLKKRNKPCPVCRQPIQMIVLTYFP
Test Description: MDM2 binding screen: displacement of fluorescent p53 peptide probe FP53 (fluorescence polarization)
Settings: Acid 91; initial screen; crude macrocycle reactions
Numbered stars: 1 amine (or outer) side, 2 acyl side, 3 side chain; on linkers, the order of the positions; unused ones are H or OH. Bridge positions count the residues as written; N and C are the ends. Square brackets hold non-standard residues; d marks the D form. Peptide text beside a SMILES is read from it. * marks the point of attachment. Pro(cis-4-NH-(E)-Cinnamoyl) = O=C(/C=C/c1ccccc1)N[C@@H]1CN[C@H](C(=O)O)C1; Cysteamide = C(CS[*:3])N[*:1]; X1 = O=C(/C=C/c1ccccc1)*; Api = NC1(C(=O)O)CCNCC1; Mpa = O=C(O)CCS
Test Readout: fraction fluorescent probe displaced, Screen

As a guide, the following entries are already answered.
O=C1CCSSCCNC(=O)C2CN(C(=O)C=Cc3ccccc3)CCN2C(=O)C2CCCN2C(=O)C(Cc2c[nH]c3ccccc23)N1 (mixture of isomers) [X W B1 D7 Acid 91] : 0.22
O=C1CCNC(=O)C2CN(C(=O)C=Cc3ccccc3)CCN2C(=O)CCSSCCNC(=O)C(Cc2c[nH]c3ccccc23)N1 (centres unmarked) [X D7 B2 W Acid 91] : 0.11
O=C1CCSSCCNC(=O)[C@@H]2CCCN2C(=O)C2(CCN(C(=O)/C=C/c3ccccc3)CC2)NC(=O)[C@H](Cc2c[nH]c3ccccc23)N1 [X W D6 B1 Acid 91] ([Mpa]W[Api](X1)P-Cysteamide; disulfide 1-C) : 0.14
O=C(/C=C/c1ccccc1)N[C@H]1C[C@H]2C(=O)N[C@@H](Cc3c[nH]c4ccccc34)C(=O)NCc3cccc(c3)C(=O)NCCSSCCC(=O)N2C1 [X D5 W B5 Acid 91] : -0.05
O=C1CCSSCCNC(=O)[C@H](Cc2c[nH]c3ccccc23)NC(=O)C2(CCN(C(=O)/C=C/c3ccccc3)CC2)NC(=O)CCN1 [X B2 D6 W Acid 91] : 0.16

(I) O=C(/C=C/c1ccccc1)N[C@H]1C[C@H]2C(=O)N3CCC[C@H]3C(=O)N[C@@H](Cc3c[nH]c4ccccc34)C(=O)NCCSSCCC(=O)N2C1 [X D5 B1 W Acid 91] ([Mpa][Pro(cis-4-NH-(E)-Cinnamoyl)]PW-Cysteamide; disulfide 1-C)
(II) O=C1CCSSCCNC(=O)c2cccc(c2)CNC(=O)C2(CCN(C(=O)/C=C/c3ccccc3)CC2)NC(=O)[C@H](Cc2c[nH]c3ccccc23)N1 [X W D6 B5 Acid 91]
(III) O=C(/C=C/c1ccccc1)NC[C@@H]1NC(=O)[C@H](Cc2ccccc2)NC(=O)c2cccc(c2)CNC(=O)CCSSCCNC1=O [X B5 F D3 Acid 91]
(IV) O=C1CCSSCCNC(=O)C(Cc2c[nH]c3ccccc23)NC(=O)C2CN(C(=O)C=Cc3ccccc3)CCN2C(=O)c2cccc(c2)CN1 (centres unmarked) [X B5 D7 W Acid 91]
hey, can you rank those compounds up there by fraction fluorescent probe displaced, Screen? biggest number first please Please list each label once, in the requested order. II, I, III, IV
(II: 0.40, I: 0.03, III: -0.05, IV: -0.10)

(I) O=C1CCSSCCNC(=O)C2(CCN(C(=O)/C=C/c3ccccc3)CC2)NC(=O)[C@H](Cc2ccccc2)NC(=O)CCN1 [X B2 F D6 Acid 91]
(II) O=C(/C=C/c1ccccc1)NC[C@@H]1NC(=O)c2cccc(c2)CNC(=O)CCSSCCNC(=O)[C@H](Cc2ccccc2)NC1=O [X B5 D3 F Acid 91]
Among I and II , which shows a numerically higher fraction fluorescent probe displaced, Screen result? Choose, then provide that item's label. I
